Parameter: IC50. Scope: all listed entries.
EXPERIMENTAL TARGET: Glycogen synthase kinase-3 alpha (Homo sapiens)
Sequence (P49840 whole entry): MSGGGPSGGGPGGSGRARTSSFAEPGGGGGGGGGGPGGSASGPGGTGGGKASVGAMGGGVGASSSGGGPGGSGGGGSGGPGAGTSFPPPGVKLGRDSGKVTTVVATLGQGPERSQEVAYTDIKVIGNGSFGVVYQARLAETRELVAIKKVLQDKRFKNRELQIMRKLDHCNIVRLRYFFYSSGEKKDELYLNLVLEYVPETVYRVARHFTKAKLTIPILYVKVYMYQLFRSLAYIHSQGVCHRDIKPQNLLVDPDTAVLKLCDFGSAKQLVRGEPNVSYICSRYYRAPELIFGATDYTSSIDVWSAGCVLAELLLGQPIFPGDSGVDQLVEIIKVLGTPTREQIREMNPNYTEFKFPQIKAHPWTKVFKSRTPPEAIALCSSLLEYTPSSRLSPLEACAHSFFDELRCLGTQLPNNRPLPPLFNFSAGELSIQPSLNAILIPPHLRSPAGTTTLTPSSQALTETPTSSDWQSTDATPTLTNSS
PROTOCOL TEXT: TR-FRET Assay
PROPERTY LABEL: IC50

> print(dat)
                                   molecule  property.label  observed.value
1  CC[C@]1(c2cccc(-c3cn(C)nc3C)c2)C2=C(CC(C)(C)CC2=O)NC2N=NC(C)=C21 (some centres undefined)            IC50        < 100 nM
2  CCC1(c2ccccc2)C2=C(N=NC2)NC2=C1C(=O)C(C)(C)SC2 (centres undefined)            IC50  100 to 1000 nM
3  CC[C@@]1(c2cccc(C(F)(F)F)c2)C2=CN=NC2NC2=C1C(=O)N(C)CC2 (some centres undefined)            IC50       > 5000 nM
4  CCC1(c2cccc(-c3cnn(C)c3C)c2)C2=C(CC(C)(C)NC2=O)NC2N=NC(C)=C21 (centres undefined)            IC50        < 100 nM

---

Entries below carry reported IC50 on Glycogen synthase kinase-3 beta (Homo sapiens, UniProt P49841).
Sequence (P49841 whole entry): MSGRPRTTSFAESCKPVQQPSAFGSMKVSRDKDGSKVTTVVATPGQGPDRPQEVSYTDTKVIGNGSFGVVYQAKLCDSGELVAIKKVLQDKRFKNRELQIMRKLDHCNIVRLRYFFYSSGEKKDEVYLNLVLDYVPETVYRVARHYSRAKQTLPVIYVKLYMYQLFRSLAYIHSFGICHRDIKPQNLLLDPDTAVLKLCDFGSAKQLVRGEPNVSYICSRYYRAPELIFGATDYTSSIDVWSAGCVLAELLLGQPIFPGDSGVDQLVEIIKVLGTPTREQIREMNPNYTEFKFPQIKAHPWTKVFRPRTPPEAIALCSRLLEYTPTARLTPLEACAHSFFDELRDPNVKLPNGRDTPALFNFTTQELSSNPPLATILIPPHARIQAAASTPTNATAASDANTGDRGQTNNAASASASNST

COMPOUND	IC50
CCC1(c2cccc(-c3ccn(C)n3)c2)C2=C(CC(C)(C)CC2=O)NC2N=NC(C)=C21 (stereo not given) [US20250313563, Compound 883999]	< 100 nM
C[C@H]1CCC[C@]12C1=CN=NC1NC1=C2C(=O)CC(C)(C)C1 (stereo not given in full) [US20250313563, Compound 874320]	1000 to 5000 nM
CCc1cc(-c2cccc([C@]3(CC)C4=CN=NC4NC4=C3C(=O)NC(C)(C)C4)c2)n(C)n1 (stereo not given in full) [US20250313563, Compound 952561]	100 to 1000 nM
CC[C@]1(c2cccc(-c3cnn(C)c3)c2)C2=C(CC(C)(C)CC2=O)NC2N=NC(C(F)(F)F)=C21 (stereo not given in full) [US20250313563, Compound 811565]	< 100 nM
CCC1(c2cccc(-c3ccnc(C)c3)c2)C2=C(N=NC2)NC2=C1C(=O)C(C)(C)C2 (stereo not given) [US20250313563, Compound 949840]	1000 to 5000 nM
CC[C@@]1(c2cccc(-c3cnn(Cc4ccc(C(F)(F)F)cc4)c3)c2)C2=CN=NC2NC2=C1C(=O)NC(C)(C)C2 (stereo not given in full) [US20250313563, Compound 951849]	100 to 1000 nM
C[S@@+]([O-])c1cccc([C@]2(C)C3=C(CC(C)(C)CC3=O)NC3=C2C(CC(C)(C)C)N=N3)c1 (stereo not given in full) [US20250313563, Compound 126191B:]	100 to 1000 nM
CCC1(c2cccc(-c3c(C)nn(C)c3C)c2)C2=CN=NC2NC2=C1C(=O)CC(C)(C)C2 (stereo not given) [US20250313563, Compound 883851]	< 100 nM
CC[C@]1(c2cccc(-c3ccncc3F)c2)C2=C(CC(C)(C)NC2=O)NC2N=NC(F)=C21 (stereo not given in full) [US20250313563, Compound 949643]	> 5000 nM
CC[C@]1(c2cccc(-c3ncnn3C)c2)C2=CN=NC2NC2=C1C(=O)CC(C)(C)C2 (stereo not given in full) [US20250313563, Compound 945472]	100 to 1000 nM
CC[C@@]1(c2cccc(-c3cnn(-c4ccncc4)c3)c2)C2=CN=NC2NC2=C1C(=O)NC(C)(C)C2 (stereo not given in full) [US20250313563, Compound 952912]	> 5000 nM
CC[C@@]1(c2cccc(-c3cnn(C)c3C)c2)C2=CN=NC2NC2=C1C(=O)NC(C)(C)C2 (stereo not given in full) [US20250313563, Compound 945608]	100 to 1000 nM
CC[C@@]1(c2ccccc2)C2=C(CC(C)(C)CC2=O)NC2N=NC(C(F)F)=C21 (stereo not given in full) [US20250313563, Compound 874510]	100 to 1000 nM
CC[C@@H]1C[C@]2(CO1)C1=C(N=NC1)NC1=C2C(=O)CC(C)(C)C1 [US20250313563, Compound 913213]	1000 to 5000 nM
COCc1ccc(S(=O)(=O)N2CCC3(CC2)C2=C(N=NC2)NC2=C3C(=O)CC(C)(C)C2)cc1 [US20250313563, Compound 947250]	< 100 nM
Cn1ccc(S(=O)(=O)N2CCCC3(CC2)C2=CN=NC2NC2=C3C(=O)CC(C)(C)C2)n1 (stereo not given) [US20250313563, Compound 917138]	< 100 nM
CC1(C)CC(=O)C2=C(C1)NC1=C(CN=N1)[C@@]21COC2(CCC2)C1 [US20250313563, Compound 917129]	100 to 1000 nM
CC1(C)CC(=O)C2=C(C1)NC1=C(CN=N1)[C@]21COC2(CCC2)C1 [US20250313563, Compound 917128]	100 to 1000 nM
CCc1cccc(N(C)c2cccc([C@]3(CC)C4=CN=NC4NC4=C3C(=O)CC(C)(C)C4)c2)n1 (stereo not given in full) [US20250313563, Compound 945730]	100 to 1000 nM
CC[C@]1(c2ccccc2)C2=CN=NC2NC2=C1C(=O)[C@@H](F)C(C)(C)C2 (stereo not given in full) [US20250313563, Compound 957405]	1000 to 5000 nM
